All figures here come from the supplement of paper PMC7877785.

Assay: self-splicing fitness, log relative to wild type (ln ratio); higher = more splicing; Tetrahymena group I intron in knt gene, E. coli kanamycin selection, DiMSum; sequences stand for … in CUCUCU…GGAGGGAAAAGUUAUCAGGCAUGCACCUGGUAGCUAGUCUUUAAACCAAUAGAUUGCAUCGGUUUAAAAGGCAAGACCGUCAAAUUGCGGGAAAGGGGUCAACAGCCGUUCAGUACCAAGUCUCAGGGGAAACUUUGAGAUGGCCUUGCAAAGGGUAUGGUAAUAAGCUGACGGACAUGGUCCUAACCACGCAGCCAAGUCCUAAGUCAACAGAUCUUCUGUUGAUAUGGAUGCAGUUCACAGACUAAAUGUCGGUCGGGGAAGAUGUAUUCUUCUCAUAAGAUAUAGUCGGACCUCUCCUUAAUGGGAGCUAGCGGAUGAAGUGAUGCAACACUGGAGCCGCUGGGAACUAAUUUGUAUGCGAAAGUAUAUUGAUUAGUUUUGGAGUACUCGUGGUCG;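 further: selection with 25 µg/mL kanamycin versus none on LB agar overnight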
Conditions: 37 °C
The class of a record is decided solely by its measured self-splicing fitness (ln); consult low-valued = under -2, mid-valued = from -2 up to -0.5, high-valued = -0.5 and over

[[record]]
sequence_code = "UGGAAGCAAUAUUACGAUUG"
assigned_label = "high-valued"


[ask] Lab note: sort `UUAAAGCAAUAUUACGGUUA` into the matching self-splicing fitness (ln) band.
[reply] high-valued

[ask] Lab note: sort `UCCAAGCAAUAUUACGGUCU` into the matching self-splicing fitness (ln) band.
[reply] high-valued

[ask] Lab note: sort `GAACAGCAAUAUUACGUCCA` into the matching self-splicing fitness (ln) band.
[reply] high-valued

[ask] Lab note: sort `AUAGAGCAAUAUUACGAAUA` into the matching self-splicing fitness (ln) band.
[reply] low-valued

----------
Assay: self-splicing fitness, log relative to wild type (ln ratio); higher = more splicing; Tetrahymena group I intron in knt gene, E. coli kanamycin selection, DiMSum; sequences stand for … in CUCUCU…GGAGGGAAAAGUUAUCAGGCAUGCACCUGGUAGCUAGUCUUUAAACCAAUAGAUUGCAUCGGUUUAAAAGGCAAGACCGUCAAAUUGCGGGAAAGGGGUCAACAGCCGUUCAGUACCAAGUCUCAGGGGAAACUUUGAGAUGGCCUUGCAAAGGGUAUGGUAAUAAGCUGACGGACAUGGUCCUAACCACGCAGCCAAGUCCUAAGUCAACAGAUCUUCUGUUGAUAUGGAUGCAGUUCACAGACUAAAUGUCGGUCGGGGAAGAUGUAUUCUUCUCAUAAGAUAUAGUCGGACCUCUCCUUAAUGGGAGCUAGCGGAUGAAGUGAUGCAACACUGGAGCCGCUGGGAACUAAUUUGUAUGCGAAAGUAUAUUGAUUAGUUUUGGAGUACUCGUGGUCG
Settings: 37 °C
Measured self-splicing fitness (ln), listed per entry.

Sample answers from the record:
[[record]]
sequence_code = "GUCUAGCAAUAUUACGAGAC"
result = -2.34

[[record]]
sequence_code = "UACCAGCAAUAUUACGACAG"
result = -0.278

[[record]]
sequence_code = "CUUUAGCAAUAUUACGGCGU"
result = -1.89

[[record]]
sequence_code = "UACUAGCAAUAUUACGCGGA"
result = -1.42

[[record]]
sequence_code = "GAUGAGCAAUAUUACGGCAG"
result = -2.52


[ask] Suppose we examine the sequence `UAAUAGCAAUAUUACGCCGG` ; what self-splicing fitness (ln) value has been reported?
[reply] -1.05

[ask] Suppose we examine the sequence `AAACAGCAAUAUUACGGCUG` ; what self-splicing fitness (ln) value has been reported?
[reply] -2.07

[ask] Suppose we examine the sequence `AGUGAGCAAUAUUACGUCGG` ; what self-splicing fitness (ln) value has been reported?
[reply] -1.97

----------
Assay: self-splicing fitness, log relative to wild type (ln ratio); higher = more splicing; Tetrahymena group I intron in knt gene, E. coli kanamycin selection, DiMSum; sequences stand for … in CUCUCU…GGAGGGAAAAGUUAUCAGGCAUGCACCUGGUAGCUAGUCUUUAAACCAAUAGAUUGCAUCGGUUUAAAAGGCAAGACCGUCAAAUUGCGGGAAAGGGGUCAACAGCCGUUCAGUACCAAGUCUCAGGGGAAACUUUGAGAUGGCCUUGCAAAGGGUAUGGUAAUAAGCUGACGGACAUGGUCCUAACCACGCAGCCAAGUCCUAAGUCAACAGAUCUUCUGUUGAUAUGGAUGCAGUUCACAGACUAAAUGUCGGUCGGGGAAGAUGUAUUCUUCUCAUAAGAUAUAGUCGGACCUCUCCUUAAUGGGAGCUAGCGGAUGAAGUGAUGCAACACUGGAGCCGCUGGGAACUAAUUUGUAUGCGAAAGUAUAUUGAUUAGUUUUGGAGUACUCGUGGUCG
Conditions: 30 °C
Observable: self-splicing fitness (ln)
API doc: respond with a numeric literal and nothing else, no unit.

[[record]]
sequence_code = "CCUUAGCAAUAUUACGGUCU"
numeric_value = -3.95

[[record]]
sequence_code = "GAUUAGCAAUAUUACGGUAG"
numeric_value = -2.5

[[record]]
sequence_code = "ACGAAGCAAUAUUACGGGUA"
numeric_value = -1.72

[[record]]
sequence_code = "CGAUAGCAAUAUUACGAUUA"
numeric_value = -1.59

[[record]]
sequence_code = "AUUAAGCAAUAUUACGAUCU"
numeric_value = 0.226


[ask] Suppose we examine the sequence `UCAGAGCAAUAUUACGUGGA` ; what self-splicing fitness (ln) value has been reported?
[reply] -2.49

[ask] Suppose we examine the sequence `GAUUAGCAAUAUUACGGGGU` ; what self-splicing fitness (ln) value has been reported?
[reply] -3.45

[ask] Suppose we examine the sequence `GAGUAGCAAUAUUACGCAGG` ; what self-splicing fitness (ln) value has been reported?
[reply] -3.04

[ask] Suppose we examine the sequence `AUCAAGCAAUAUUACGACUG` ; what self-splicing fitness (ln) value has been reported?
[reply] -1.59

[ask] Suppose we examine the sequence `CAAAAGCAAUAUUACGUUCG` ; what self-splicing fitness (ln) value has been reported?
[reply] -0.43

[ask] Suppose we examine the sequence `CCUCAGCAAUAUUACGUUUC` ; what self-splicing fitness (ln) value has been reported?
[reply] -3.04

----------
Assay: self-splicing fitness, log relative to wild type (ln ratio); higher = more splicing; Tetrahymena group I intron in knt gene, E. coli kanamycin selection, DiMSum; sequences stand for … in CUCUCU…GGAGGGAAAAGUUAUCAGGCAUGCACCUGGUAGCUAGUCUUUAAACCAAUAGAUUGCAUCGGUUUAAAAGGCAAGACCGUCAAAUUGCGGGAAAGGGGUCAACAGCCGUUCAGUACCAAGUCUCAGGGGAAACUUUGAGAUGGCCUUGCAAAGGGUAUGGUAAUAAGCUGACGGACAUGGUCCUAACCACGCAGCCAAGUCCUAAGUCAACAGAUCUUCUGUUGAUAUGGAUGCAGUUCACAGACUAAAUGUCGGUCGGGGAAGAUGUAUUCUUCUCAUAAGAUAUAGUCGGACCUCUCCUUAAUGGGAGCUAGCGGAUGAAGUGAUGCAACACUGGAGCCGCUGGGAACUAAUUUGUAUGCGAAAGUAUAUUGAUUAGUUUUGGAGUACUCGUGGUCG
Details: 30 °C
The class of a record is decided solely by its measured self-splicing fitness (ln); consult low interval: < -3; middle interval: ≥ -3 and < -2; high interval: ≥ -2

Record excerpt, results attached:
[[record]]
sequence_code = "UGGGAGCAAUAUUACGAUGU"
assigned_label = "low interval"

[[record]]
sequence_code = "GUCAAGCAAUAUUACGAAAU"
assigned_label = "middle interval"

[[record]]
sequence_code = "CGCGAGCAAUAUUACGGAGG"
assigned_label = "low interval"

[[record]]
sequence_code = "CAAGAGCAAUAUUACGUGGA"
assigned_label = "low interval"

[[record]]
sequence_code = "CGAGAGCAAUAUUACGGUCG"
assigned_label = "high interval"


[ask] Lab note: sort `ACCGAGCAAUAUUACGAACA` into the matching self-splicing fitness (ln) band.
[reply] low interval

[ask] Lab note: sort `ACGCAGCAAUAUUACGAGCG` into the matching self-splicing fitness (ln) band.
[reply] high interval

[ask] Lab note: sort `ACUGAGCAAUAUUACGUCUG` into the matching self-splicing fitness (ln) band.
[reply] low interval

----------
Assay: self-splicing fitness, log relative to wild type (ln ratio); higher = more splicing; Tetrahymena group I intron in knt gene, E. coli kanamycin selection, DiMSum; sequences stand for … in CUCUCU…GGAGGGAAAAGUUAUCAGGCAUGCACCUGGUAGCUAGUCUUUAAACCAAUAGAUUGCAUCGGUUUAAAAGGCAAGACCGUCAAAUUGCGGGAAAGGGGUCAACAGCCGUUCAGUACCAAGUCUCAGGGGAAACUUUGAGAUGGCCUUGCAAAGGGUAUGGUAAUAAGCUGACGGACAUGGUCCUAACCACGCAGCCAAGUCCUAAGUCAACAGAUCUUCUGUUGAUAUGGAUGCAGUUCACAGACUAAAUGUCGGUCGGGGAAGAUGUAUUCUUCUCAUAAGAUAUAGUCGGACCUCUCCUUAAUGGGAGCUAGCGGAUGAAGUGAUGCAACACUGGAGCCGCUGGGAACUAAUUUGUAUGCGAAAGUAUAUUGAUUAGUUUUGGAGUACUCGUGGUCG
Conditions: 37 °C
Response key: True means self-splicing fitness (ln) >= -1; False means self-splicing fitness (ln) < -1.

[[record]]
sequence_code = "CUAAAGCAAUAUUACGACUG"
assigned_label = "True"

[[record]]
sequence_code = "CAGCAGCAAUAUUACGUGGG"
assigned_label = "False"

[[record]]
sequence_code = "GCGCAGCAAUAUUACGUGCA"
assigned_label = "True"

[[record]]
sequence_code = "CACUAGCAAUAUUACGAGGG"
assigned_label = "False"


[ask] Is self-splicing fitness (ln) for `GUGCAGCAAUAUUACGUUCC` at or above -1?
[reply] False

[ask] Is self-splicing fitness (ln) for `ACAAAGCAAUAUUACGAUAC` at or above -1?
[reply] False

[ask] Is self-splicing fitness (ln) for `UCUAAGCAAUAUUACGGGAG` at or above -1?
[reply] False

[ask] Is self-splicing fitness (ln) for `UGUGAGCAAUAUUACGGAGA` at or above -1?
[reply] False

[ask] Is self-splicing fitness (ln) for `CCUGAGCAAUAUUACGUACG` at or above -1?
[reply] False

[ask] Is self-splicing fitness (ln) for `GAUCAGCAAUAUUACGCAGG` at or above -1?
[reply] False
